system: HRP-Goat A'Mouse IgG; experiment: Enzymatic determination of protein binding to coated medium binding polystyrene plate; details: coated medium binding PS; versus uncoated high binding polystyrene plate; absorbance 405 nm
observedProperty: % Reduction in Protein Binding (%)
Give bare numbers, in %.

Known % Reduction in Protein Binding results, listed for orientation:
CCCCCCCCCCCCCCCCCC(=O)OCCOCCOCCOCCOCCOCCOCCOCCO [PEO(8) STEARATE] = 99.1
CCCCCCCCCCCCCCCCOCCOCCO [PEO(2) CETYL ETHER] = 99.9
CCCCCCCC/C=C\CCCCCCCC(=O)OCC(O)CO (stereo not drawn) [GLYCEROL MONO-OLEATE] = 92.4
CCCCCCCCCCCCCCCCCCOCCOCCO [PEO(2) STEARYL ETHER] = 97.9
CCCCCCCCCCCCOCCOCCOCCOCCO [PEO(4) LAURYL ETHER] = 99.3

// moving on: another record for % Reduction in Protein Binding
# input Output measured % Reduction in Protein Binding for this item: CCCCCCCC/C=C\CCCCCCCCOCCOCCO [PEO(2) OLEYL ETHER]
# output 99.9

Data origin, for the record: patent US7776572B2
